Ref: patent US11643391B2

# Remaining Percentage per record follows
assay: Stability in Mouse Plasma; assay type: in vitro ADME; settings: Table 9, 15 min
Numbers only; they are read as %.

The following compounds have reported results that may help.
CCCCC(=O)Oc1cccc2ccn(CCN(C)C)c12	0.00
CC(OC(=O)n1cc(CCN(C)C)c2ccccc21)OC(=O)C(C)(C)C (racemic)	0.00

### Prompt Please look up its Remaining Percentage: CC(C)[N+](C)(CCOC(=O)C1c2ccccc2Oc2ccccc21)C(C)C [Propantheline, reference compound]
### Response 85.78

### Prompt Please look up its Remaining Percentage: CC(OC(=O)C(C)C)OC(=O)n1cc(CCN(C)C)c2ccccc21 (stereo not shown)
### Response 0.00
